target: human TLR8 (wild type sequence) (Homo sapiens, UniProt Q9NR97); construct: expressed in transfected cells; host or cells: HEK293; test: TLR8 cellular NFκB-luc reporter assay, wild type TLR8; format: cell-based; design: unit not given here; details: lowest effective concentration, wild type TLR8 (compounds 1-73)
Sequence (Q9NR97 27-1041): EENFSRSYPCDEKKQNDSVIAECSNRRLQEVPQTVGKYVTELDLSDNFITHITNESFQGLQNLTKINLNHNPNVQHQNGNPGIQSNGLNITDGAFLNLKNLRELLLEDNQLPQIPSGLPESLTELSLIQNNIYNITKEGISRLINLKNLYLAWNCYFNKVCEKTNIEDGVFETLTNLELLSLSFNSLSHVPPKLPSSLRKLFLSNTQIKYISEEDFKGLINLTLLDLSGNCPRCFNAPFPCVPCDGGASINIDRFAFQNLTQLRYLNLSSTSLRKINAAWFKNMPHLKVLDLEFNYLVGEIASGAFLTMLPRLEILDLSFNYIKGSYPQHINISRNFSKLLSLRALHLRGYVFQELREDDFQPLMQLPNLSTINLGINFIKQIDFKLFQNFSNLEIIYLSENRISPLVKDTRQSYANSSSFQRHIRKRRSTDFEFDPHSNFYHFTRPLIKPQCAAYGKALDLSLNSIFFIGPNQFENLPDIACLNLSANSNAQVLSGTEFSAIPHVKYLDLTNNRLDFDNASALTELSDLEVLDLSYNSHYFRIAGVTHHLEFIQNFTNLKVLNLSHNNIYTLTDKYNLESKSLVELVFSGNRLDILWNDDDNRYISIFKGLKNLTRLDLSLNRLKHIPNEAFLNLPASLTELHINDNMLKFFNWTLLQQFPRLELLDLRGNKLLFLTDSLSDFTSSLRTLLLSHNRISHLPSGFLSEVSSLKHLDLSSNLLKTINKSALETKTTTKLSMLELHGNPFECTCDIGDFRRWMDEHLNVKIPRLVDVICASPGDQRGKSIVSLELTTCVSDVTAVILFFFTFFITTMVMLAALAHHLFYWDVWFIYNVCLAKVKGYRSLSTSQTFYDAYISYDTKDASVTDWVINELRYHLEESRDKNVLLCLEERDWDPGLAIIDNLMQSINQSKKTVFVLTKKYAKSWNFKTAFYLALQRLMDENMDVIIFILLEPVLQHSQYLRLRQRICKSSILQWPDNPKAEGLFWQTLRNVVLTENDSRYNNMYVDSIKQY
Think of 4 as a floor: if TLR8-wt_LEC stands on it or above, it is true (1); beneath it, false (0).

### Prompt Does the molecule CCCCNc1nc(N)ncc1OCc1cncn1-c1ccccc1C have recorded TLR8-wt_LEC that is 4 or more?
### Response true (1)

### Prompt Does the molecule CCCCCCNc1nc(N)ncc1OCC have recorded TLR8-wt_LEC that is 4 or more?
### Response true (1)

### Prompt Does the molecule CCCCNc1nc(N)ncc1OCCCC have recorded TLR8-wt_LEC that is 4 or more?
### Response true (1)

### Prompt Does the molecule CCCCNc1nc(N)ncc1OCc1ncc(C)c(OC)c1C have recorded TLR8-wt_LEC that is 4 or more?
### Response false (0)

### Prompt Does the molecule CCCCNc1nc(N)ncc1OCc1cc(C)on1 have recorded TLR8-wt_LEC that is 4 or more?
### Response false (0)

### Prompt Does the molecule CCCCCCCCOc1cnc(N)nc1NCCCC have recorded TLR8-wt_LEC that is 4 or more?
### Response true (1)

### Prompt Does the molecule CCCCNc1nc(N)ncc1OCc1ccc(C(=O)OC)cc1OC have recorded TLR8-wt_LEC that is 4 or more?
### Response false (0)

### Prompt Does the molecule CCCCNc1nc(N)ncc1OCCCC#N have recorded TLR8-wt_LEC that is 4 or more?
### Response false (0)

### Prompt Does the molecule CCCCNc1nc(N)ncc1OCc1occc1C(=O)OCC have recorded TLR8-wt_LEC that is 4 or more?
### Response false (0)

### Prompt Does the molecule CCCCNc1nc(N)ncc1OCc1ccccc1F have recorded TLR8-wt_LEC that is 4 or more?
### Response false (0)

### Prompt Does the molecule CCCCNc1nc(N)ncc1OCCO have recorded TLR8-wt_LEC that is 4 or more?
### Response false (0)

### Prompt Does the molecule CCCCNc1nc(N)ncc1OCc1ccc(-c2ccccc2)cc1 have recorded TLR8-wt_LEC that is 4 or more?
### Response false (0)

### Prompt Does the molecule CCCCNc1nc(N)ncc1Oc1ccccc1OC have recorded TLR8-wt_LEC that is 4 or more?
### Response true (1)

### Prompt Does the molecule CCCCNc1nc(N)ncc1OCC(C)C have recorded TLR8-wt_LEC that is 4 or more?
### Response true (1)

### Prompt Does the molecule CCCCCOc1cnc(N)nc1NCCCC have recorded TLR8-wt_LEC that is 4 or more?
### Response true (1)

### Prompt Does the molecule CCCCNc1nc(N)ncc1OCC have recorded TLR8-wt_LEC that is 4 or more?
### Response false (0)

====

target: human TLR7 (wild type sequence) (Homo sapiens, UniProt Q9NYK1); construct: expressed in transfected cells; host or cells: HEK293; assay: TLR7 cellular NFκB-luc reporter assay, wild type TLR7; assay type: cell-based; set-up: unit not given here; conditions: lowest effective concentration, wild type TLR7 (compounds 1-73)
Sequence (Q9NYK1 27-1049): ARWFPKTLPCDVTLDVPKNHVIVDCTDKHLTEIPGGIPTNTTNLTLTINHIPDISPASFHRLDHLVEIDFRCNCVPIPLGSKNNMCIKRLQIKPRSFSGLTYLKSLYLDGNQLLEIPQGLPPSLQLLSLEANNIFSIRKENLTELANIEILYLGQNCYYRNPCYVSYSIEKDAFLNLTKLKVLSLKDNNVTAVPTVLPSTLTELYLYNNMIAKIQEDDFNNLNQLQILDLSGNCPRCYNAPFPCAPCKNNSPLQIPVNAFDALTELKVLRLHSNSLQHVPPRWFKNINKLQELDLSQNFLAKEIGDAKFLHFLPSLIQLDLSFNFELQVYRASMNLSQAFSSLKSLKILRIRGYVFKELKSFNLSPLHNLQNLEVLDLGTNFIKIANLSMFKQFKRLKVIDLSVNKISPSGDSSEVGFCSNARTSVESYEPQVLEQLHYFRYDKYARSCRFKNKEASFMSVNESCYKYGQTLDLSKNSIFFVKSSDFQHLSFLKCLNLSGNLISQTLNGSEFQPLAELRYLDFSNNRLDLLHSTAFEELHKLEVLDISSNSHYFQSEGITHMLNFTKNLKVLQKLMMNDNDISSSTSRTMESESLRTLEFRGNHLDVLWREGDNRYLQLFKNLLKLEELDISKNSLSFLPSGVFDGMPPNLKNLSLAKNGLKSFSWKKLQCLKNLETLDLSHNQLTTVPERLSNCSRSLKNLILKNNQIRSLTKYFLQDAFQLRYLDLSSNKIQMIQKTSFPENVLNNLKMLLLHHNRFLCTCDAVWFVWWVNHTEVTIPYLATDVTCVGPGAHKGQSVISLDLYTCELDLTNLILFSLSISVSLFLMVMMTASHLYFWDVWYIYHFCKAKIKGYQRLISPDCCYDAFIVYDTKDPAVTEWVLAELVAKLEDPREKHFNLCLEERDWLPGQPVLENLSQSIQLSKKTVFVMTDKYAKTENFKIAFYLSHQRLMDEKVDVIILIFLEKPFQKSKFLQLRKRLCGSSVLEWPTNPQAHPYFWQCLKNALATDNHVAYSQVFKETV
Property: TLR7-wt_LEC
// return a plain number; no unit text

Some molecules with known TLR7-wt_LEC results, for comparison:
{"Smiles Text": "CCCCCCNc1nc(N)ncc1OCC", "TLR7-wt_LEC": 15.84}
{"Smiles Text": "CCCCNc1nc(N)ncc1OCc1ccc(-c2ccccc2)cc1", "TLR7-wt_LEC": 6.48}

API: the following record is the query input.
### Prompt Could you share which TLR7-wt_LEC value was measured for CCCCNc1nc(N)ncc1OCc1ccccc1 ?
### Response 0.90
